target: Muscarinic acetylcholine receptor M4 (Homo sapiens) (UniProt P08173); experiment: M4-linked GIRK flux change, two-sided – cell-based, HEK293 M4/GIRK, thallium flux, BTC-AM, M4 allosteric agonist project, primary screen (AID 625); conditions: at 10 µM, actives lie on both sides;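 also: thallium influx through GIRK channels coupled to M4 in HEK293 cells with BTC-AM dye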
Sequence (P08173 whole entry, looked up): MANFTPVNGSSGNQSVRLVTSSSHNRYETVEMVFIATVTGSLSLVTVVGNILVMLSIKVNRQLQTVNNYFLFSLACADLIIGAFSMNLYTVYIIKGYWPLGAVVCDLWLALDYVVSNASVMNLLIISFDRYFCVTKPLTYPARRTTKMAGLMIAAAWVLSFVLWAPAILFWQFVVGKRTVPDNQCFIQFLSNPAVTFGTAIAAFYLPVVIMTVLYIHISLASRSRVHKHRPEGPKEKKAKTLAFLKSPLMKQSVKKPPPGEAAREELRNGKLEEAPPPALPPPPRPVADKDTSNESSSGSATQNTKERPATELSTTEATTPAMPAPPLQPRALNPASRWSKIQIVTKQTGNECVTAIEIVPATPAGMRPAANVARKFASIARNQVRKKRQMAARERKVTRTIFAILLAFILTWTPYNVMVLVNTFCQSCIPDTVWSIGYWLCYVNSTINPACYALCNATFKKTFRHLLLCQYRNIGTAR
Binary call on fluorescence slope: YES from 0.005 upward, NO beneath that.

[[record]]
compound = "O=C1CC(c2ccco2)CC(O)=C1C=NCC1NCCc2ccccc21 (centres undefined)"
group = "YES"

[[record]]
compound = "CC1CCN(CCCNC(=O)c2cn(C)c3ccc(S(=O)(=O)N4CCCC4)cc3c2=O)CC1"
group = "YES"

[[record]]
compound = "CCCCn1c(SCc2cccnc2)nc2c1c(=O)n(C)c(=O)n2C"
group = "NO"

[[record]]
compound = "Cc1cc(C(=O)N2CCN(C(c3ccccc3)c3ccccc3)CC2)no1"
group = "YES"

[[record]]
compound = "Cc1nc(NCc2ccccn2)c2ccccc2n1"
group = "YES"

[[record]]
compound = "Cc1cc(=O)[nH]c2c1cnn2Cc1ccccc1"
group = "NO"

[[record]]
compound = "COC(=O)c1cc(NS(=O)(=O)c2ccc3c(c2)CCC(=O)N3)cc(C(=O)OC)c1"
group = "YES"

[[record]]
compound = "COCC(=O)Nc1sc2c(c1C(=O)OC)C(C(=O)OC)CC2 (centres undefined)"
group = "YES"

[[record]]
compound = "COc1ccc(-c2noc(CCC(=O)NCCCN3CCC(Cc4ccccc4)CC3)n2)cc1"
group = "NO"

[[record]]
compound = "CCn1cc(C(=O)NCCN(C)CCc2ccccc2)c(=O)c2cc(S(=O)(=O)N(C)C)ccc21"
group = "YES"

[[record]]
compound = "O=C(c1cnsn1)N1CCN(c2ccccn2)CC1"
group = "YES"

[[record]]
compound = "COc1ccc(S(=O)(=O)N2CCN(C3CCCCCCC3)CC2)cc1"
group = "NO"

[[record]]
compound = "CCOc1ccc2cc(C#N)c(SCC(=O)N3CCCC3)nc2c1"
group = "YES"

[[record]]
compound = "COc1ccc(CC(=O)OCc2nnc(C3COc4ccccc4O3)o2)cc1OC (centres undefined)"
group = "YES"

[[record]]
compound = "CCNC(=O)COc1ccc(Br)cc1Cl"
group = "YES"

[[record]]
compound = "O=C1CCC(=O)N1OCCCCOc1ccccc1"
group = "YES"

[[record]]
compound = "CCOC(=O)c1cc(CC)sc1NC(=O)C1CC1"
group = "YES"

[[record]]
compound = "COc1cc(NC(=O)c2ccc(COCC(F)(F)F)o2)cc(OC)c1OC"
group = "YES"

[[record]]
compound = "COc1ccc(-n2ncc3c(NCc4ccc5c(c4)OCO5)ncnc32)cc1"
group = "YES"

[[record]]
compound = "CCOC(=O)c1ccccc1NC(=O)CSc1nc2c(c(=O)n(C)c(=O)n2C)n1C"
group = "YES"

[[record]]
compound = "CCOC(=O)c1cc2sccc2n1CC(=O)Nc1ccc(OC)cc1OC"
group = "NO"

